Test target: Peroxisome proliferator-activated receptor alpha (Homo sapiens, UniProt Q07869)
Sequence (Q07869 whole entry): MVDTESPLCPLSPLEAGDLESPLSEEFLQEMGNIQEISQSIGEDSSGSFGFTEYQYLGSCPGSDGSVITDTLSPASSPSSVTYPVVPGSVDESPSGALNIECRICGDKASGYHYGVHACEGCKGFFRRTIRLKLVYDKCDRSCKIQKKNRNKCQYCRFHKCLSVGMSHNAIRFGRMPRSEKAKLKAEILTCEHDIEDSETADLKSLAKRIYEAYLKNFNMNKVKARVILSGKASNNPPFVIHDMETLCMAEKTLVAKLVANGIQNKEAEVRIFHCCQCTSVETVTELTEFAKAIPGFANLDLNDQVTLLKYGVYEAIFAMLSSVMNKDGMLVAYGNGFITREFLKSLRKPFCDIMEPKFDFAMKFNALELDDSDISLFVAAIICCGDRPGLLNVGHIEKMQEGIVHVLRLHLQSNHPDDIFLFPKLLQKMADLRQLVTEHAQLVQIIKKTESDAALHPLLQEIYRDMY
Assay method text: Activity at PPARalpha by luciferase reporter gene transactivation assay in COS7 cells
Assay readout: EC50 (nM)
Give the value in nM but do not write nM after it.

Given item CCCc1c(OCCCOc2ccc(OCC(=O)O)cc2)ccc(C(C)=O)c1O , the value recorded as its EC50 is 977

Given item CCCc1cc(C(F)(F)F)ncc1OCCCOc1ccc(OCC(=O)O)c(C)c1 , the value recorded as its EC50 is 1330

###

# Lookup of reported EC50 keyed by entry
Test target: Peroxisome proliferator-activated receptor delta (Homo sapiens)
Sequence (Q03181 whole entry): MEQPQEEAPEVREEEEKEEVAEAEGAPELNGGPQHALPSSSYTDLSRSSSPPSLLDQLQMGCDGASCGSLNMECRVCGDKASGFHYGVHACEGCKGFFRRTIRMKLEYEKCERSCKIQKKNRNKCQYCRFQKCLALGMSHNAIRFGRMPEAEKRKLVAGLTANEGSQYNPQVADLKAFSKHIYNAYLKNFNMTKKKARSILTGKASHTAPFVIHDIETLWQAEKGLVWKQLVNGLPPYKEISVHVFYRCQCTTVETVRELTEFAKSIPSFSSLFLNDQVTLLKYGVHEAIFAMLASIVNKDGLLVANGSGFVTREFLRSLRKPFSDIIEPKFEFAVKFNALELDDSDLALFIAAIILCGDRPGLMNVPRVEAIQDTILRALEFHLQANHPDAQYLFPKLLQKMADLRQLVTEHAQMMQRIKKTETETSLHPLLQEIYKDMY
Assay method text: Activity at PPARbeta/delta by luciferase reporter gene transactivation assay in COS7 cells
Give the value in nM but do not write nM after it.

Use the examples below as a reference point.
CCCc1c(OCCCOc2ccc(OCC(=O)OC)cc2)cnc(C(C)=O)c1O    82
CCCc1c(OCCCOc2ccc(OCC(=O)OC)cc2)ccc(C(C)=O)c1O    457
CCCc1ccccc1OCCCOc1ccc(OCC(=O)OC)cc1    1050

Given item CCCc1cc(C(F)(F)F)ccc1OCCCOc1ccc(OCC(=O)OC)cc1 , the value recorded as its EC50 is 98

Given item CCCc1cc(C(F)(F)F)ccc1OCCCOc1ccc(OCC(=O)O)c(C)c1 , the value recorded as its EC50 is 7

Given item CCCc1cc(C(F)(F)F)ncc1OCCCOc1ccc(OCC(=O)O)c(C)c1 , the value recorded as its EC50 is 15

Given item CCCc1c(OCCCOc2ccc(OCC(=O)O)cc2)ccc(C(C)=O)c1O , the value recorded as its EC50 is 125

Given item CCCc1cc(C(F)(F)F)ccc1OCCCOc1ccc(OCC(=O)OC)c(C)c1 , the value recorded as its EC50 is 16

Given item CC(=O)c1ccc(OCCCOc2ccc(OCC(=O)O)cc2)cc1O , the value recorded as its EC50 is 10000

###

# Lookup of reported EC50 keyed by entry
Test target: Peroxisome proliferator-activated receptor gamma (Homo sapiens, UniProt P37231)
Sequence (P37231 whole entry): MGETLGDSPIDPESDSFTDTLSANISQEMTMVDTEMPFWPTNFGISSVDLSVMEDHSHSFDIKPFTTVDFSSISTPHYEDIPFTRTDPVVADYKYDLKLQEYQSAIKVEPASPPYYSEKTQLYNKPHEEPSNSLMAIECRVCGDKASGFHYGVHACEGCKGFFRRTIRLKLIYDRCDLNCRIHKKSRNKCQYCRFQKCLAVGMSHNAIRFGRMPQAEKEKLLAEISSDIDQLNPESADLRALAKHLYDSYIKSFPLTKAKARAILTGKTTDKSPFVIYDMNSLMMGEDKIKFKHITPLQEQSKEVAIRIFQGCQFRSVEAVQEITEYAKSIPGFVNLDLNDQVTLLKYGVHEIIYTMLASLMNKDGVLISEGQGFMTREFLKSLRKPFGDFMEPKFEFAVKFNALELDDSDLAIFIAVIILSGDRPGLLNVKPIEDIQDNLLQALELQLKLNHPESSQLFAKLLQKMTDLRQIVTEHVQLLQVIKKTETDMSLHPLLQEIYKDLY
Assay method text: Activity at PPARgamma by luciferase reporter gene transactivation assay in COS7 cells
Give the value in µM but do not write µM after it.

Use the examples below as a reference point.
CCCc1c(OCCCOc2ccc(OCC(=O)OC)cc2)cnc(C(C)=O)c1O    0.757
CCCc1cc(C(F)(F)F)ccc1OCCCOc1ccc(OCC(=O)OC)c(C)c1    1.26
CCCc1cc(C(F)(F)F)ccc1OCCCOc1ccc(OCC(=O)O)c(C)c1    0.153

Given item CCCc1c(OCCCOc2ccc(OCC(=O)OC)cc2)ccc(C(C)=O)c1O , the value recorded as its EC50 is 0.288

Given item CCCc1c(OCCCOc2ccc(OCC(=O)O)cc2)ccc(C(C)=O)c1O , the value recorded as its EC50 is 1.82

Given item CCCc1cc(C(F)(F)F)ncc1OCCCOc1ccc(OCC(=O)O)c(C)c1 , the value recorded as its EC50 is 1.58

Given item CCCc1cc(C(F)(F)F)ccc1OCCCOc1ccc(OCC(=O)OC)cc1 , the value recorded as its EC50 is 1.19

###

Test target: Peroxisome proliferator-activated receptor alpha (Homo sapiens)
Assay method text: Activity at PPARalpha by luciferase reporter gene transactivation assay in COS7 cells
Assay readout: EC50
Write the numeric value and append its unit.

Use the examples below as a reference point.
CCCc1c(OCCCOc2ccc(OCC(=O)OC)cc2)cnc(C(C)=O)c1O    8390 nM
CCCc1c(OCCCOc2ccc(OCC(=O)OC)cc2)ccc(C(C)=O)c1O    1070 nM
CCCc1cc(C(F)(F)F)ccc1OCCCOc1ccc(OCC(=O)OC)c(C)c1    1010 nM
CCCc1cc(C(F)(F)F)ccc1OCCCOc1ccc(OCC(=O)O)c(C)c1    103 nM

Given item CCCc1cc(C(F)(F)F)ccc1OCCCOc1ccc(OCC(=O)OC)cc1 , the value recorded as its EC50 is 1400 nM

These measurements were taken from ChEMBL document CHEMBL1146916.
